Data origin, for the record: patent US9714236B2

Consider the following compounds and their measured IC50 readings.
Target: recombinant JAK3 (amino acids 781-1124) (Homo sapiens (Human), UniProt P52333)
Sequence (P52333 781-1124): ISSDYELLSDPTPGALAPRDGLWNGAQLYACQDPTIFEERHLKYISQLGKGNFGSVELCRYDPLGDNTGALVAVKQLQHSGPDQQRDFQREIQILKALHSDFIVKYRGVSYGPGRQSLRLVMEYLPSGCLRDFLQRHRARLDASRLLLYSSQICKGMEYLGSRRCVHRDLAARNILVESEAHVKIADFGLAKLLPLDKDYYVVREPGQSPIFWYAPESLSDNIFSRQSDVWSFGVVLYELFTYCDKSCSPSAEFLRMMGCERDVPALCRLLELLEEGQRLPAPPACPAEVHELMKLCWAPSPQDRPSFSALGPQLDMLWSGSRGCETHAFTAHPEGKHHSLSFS
Assay: Enzyme inhibition studies, JAK3 (peptide phosphorylation, Caliper LC3000)
Details: ATP concentration of the tabulated values not stated (assayed at ATP Km 3 μM and at 5 mM)

Please fill in: IC50 reported for CCOc1nn(C)cc1Nc1ncc(F)c(-c2c[nH]c3c(NC(=O)[C@@H](C)N4CCN(C)[C@H](C)C4)cccc23)n1 [Example 13] = > 30 µM

response.value for COc1nn(C)cc1Nc1ncc(C)c(-c2c[nH]c3c(NC(=O)[C@@H](C)N4CCN(C)CC4)cccc23)n1 [Example 34] (field: IC50) = > 30 µM

// IC50 lookup, compound = COc1nn(C)cc1Nc1ncc(Cl)c(-c2c[nH]c3c(NC(=O)[C@@H](C)N4CCN(C)CC4)cccc23)n1 [Example 36] , result: 19.1 µM
